molecular target: Torsin-1A (Homo sapiens); assay: small-molecule binders of mutant TOR1A in lysate, primary screen, cell lysate, small-molecule microarray, COS7 lysate, 635/667 nm fluorescence (AID 1150); conditions: COS7 hTOR1A mutant lysate, 635 nm fluorescence, higher = more signal;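 note: score pools 667 nm emission and signal to noise measuring lysate protein binding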
Binary call on composite z-score: Criterion met from 0.3 upward, Criterion not met beneath that.

In plain terms: is recorded composite z-score at least 0.3 for `CCCC[C@H]1OB(O)C[C@H]2C1=C(COC)C[C@H]1C(=O)C=CC(=O)[C@H]12` ?
Criterion not met

Also COc1ccc(NN2C(C(O)c3ccc(OC)cc3)C=CC3C(=O)N(C4CCCCC4)C(=O)C32)cc1 (stereo not given) ?
Criterion not met

* * *

Recorded composite z-score by entry
molecular target: Dickkopf-related protein 1 (Homo sapiens); assay: DKK1 binders on small-molecule microarrays, primary screen, biochemical, small-molecule microarray, 635 nm fluorescence scan (AID 1106); conditions: DKK1 binding, higher = more signal;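 note: score merges emission near 667 nm with signal to noise over three replicate slides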
Simply state the number, no unit and no words.

Reference set, count: 2
C[C@]1(C(=O)NCC(F)(F)F)c2ccccc2C(=O)N(Cc2ccc(OC(F)(F)F)cc2)[C@H]1c1ccc(CO)cc1 0.0106
CN(C)CCCCNC(=O)[C@H]1C[C@H]2C(=O)NCC(=O)N2[C@H]1c1cccc(OCCO)c1 0.168

Lab note: next molecule to report on.
Bench note: what composite z-score did `COc1ccc([Si](C)(C)[C@H]2[C@H](CC(=O)N3Cc4ccccc4C[C@H]3CO)O[C@@]3(C(=O)N(Cc4cccc(N5C(=O)c6cccc7cccc5c67)c4)c4ccccc43)[C@@H]2C)cc1` show?
0.948

* * *

experiment: small-molecule microarray binders of probe aNog, primary screen, biochemical, biotinylated probe, 635/667 nm fluorescence (AID 1115); details: higher = more signal;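 note: probe is biotinylated aNog protein used at 0.15 µg/mL for 1 h at 4 C; z-score combines 667 nm fluorescence of each spot with its signal to noise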
Could you please classify the records by composite z-score using these ranges: label 0 (below -0.08), label 1 (-0.08 to below 0.6), label 2 (0.6 or more)

compound	class name
C=CCNC(=O)[C@@H]1[C@H]2C(=O)O[C@H](c3ccccc3)[C@H](c3ccccc3)N2[C@H](c2ccc(O)cc2)[C@@]12C(=O)Nc1ccc(C#CC3(O)CCCCCC3)cc12	label 0
CC(=O)c1ccc(C(O)C2C=CC3C(=O)NC(=O)C3N2Nc2ccc(Cl)cc2Cl)cc1 (stereo not given)	label 2
COc1cc2c(cc1O)C(c1ccc(CN3CCCC3)cc1)N(Cc1cccc(OC(F)(F)F)c1)CC2 (stereo not given)	label 1
Cc1ccc(S[C@]2(C(=O)NCCN3CCOCC3)CC(=O)N(C3CCCCC3)[C@@H]2c2ccc(CO)cc2I)cc1	label 1
CC(C)C(=C=CC[C@@H](O)c1ccccc1OCCO)C[C@@H](O)c1cc(Cl)cc(Cl)c1O	label 1

Place this compound in its band: `CCOC(=O)C1=CC[C@@H](c2ccccc2Cl)N(S(=O)(=O)c2ccc(C)cc2)[C@H]1c1cccc(OC)c1`
label 1

Another: `COc1ccc(CCNC(=O)[C@@]2(Sc3ccc(C)cc3)CC(=O)N(Cc3cc(C(F)(F)F)cc(C(F)(F)F)c3)[C@@H]2c2ccc(CO)cc2)cc1`
label 0

Item: `COc1ccc([Si](C)(C)[C@@H]2[C@@H](CCO)O[C@]3(C(=O)N(Cc4ccccc4)c4ccc(N5C(=O)c6ccccc6Oc6ccccc65)cc43)[C@H]2C)cc1`
label 1

* * *

composite z-score values by entry
biological target: Neurogenic locus notch homolog protein 3 (Homo sapiens); test: NOTCH3 binders on small-molecule microarray, primary screen, biochemical, 635/667 nm fluorescence (AID 1096); settings: NOTCH3 binding, 635 nm fluorescence, higher = more signal
Give only the figure.

These recorded examples may help you get a feel for the data.
compound	composite z-score
O=C1OCCC=C[C@H]2OC34C=CCN(CCN5CCOCC5)C(=O)[C@H]3N(CCCO)C(=O)[C@@H]4C12 (stereo partly drawn)	0.329
CCCC[C@H]1OB(O)C[C@H]2C1=C(COC)C[C@H]1C(=O)C=CC(=O)[C@H]12	0.936

Which composite z-score is reported with Neurogenic locus notch homolog protein 3 (Homo sapiens) for this entry: `COCCOC(=O)N1C(=O)[C@@]2(c3cc(C#CCCO)ccc31)[C@H](C(=O)N1CCc3cc(OC)c(OC)cc3C1)[C@H]1C(=O)O[C@H](c3ccccc3)[C@H](c3ccccc3)N1[C@@H]2c1ccccc1OCCO` ?
1.1
